System: SYK
Assay: KINOMEscan kinase binding assay
Settings: at 1 μM
measure: % Ctrl (%)

* Cc1cc2c([nH]1)/C=C1\C(=O)Nc3c(Cl)cc(cc31)-c1cn(C)nc1COC[C@@H](C)N(C)C2=O | 90
* Cc1cc2c([nH]1)/C=C1\C(=O)Nc3ccc(cc31)-c1c(nn(C)c1C)COCCN(C)C2=O | 100
* Cc1cc2c([nH]1)/C=C1\C(=O)Nc3ccc(cc31)-c1c(nn(C)c1C)OCCCN(C)C2=O | 98
* C[C@@H]1COCc2nn(C)cc2-c2cc(Cl)c3c(c2)/C(=C/c2[nH]ccc2C(=O)N1)C(=O)N3 | 64
* Cc1cc2c([nH]1)/C=C1\C(=O)Nc3c(Cl)cc(cc31)-c1cn(C)nc1COC[C@@H](C)NC2=O | 68
